experiment: Displacement of [125I]IMPY from amyloid beta (1-42) after 2 hrs by gamma counting
property_label: pKi
The quantity pKi is defined as the negative base-10 logarithm of the molar concentration.

input_smiles	pKi
CN(C)c1ccc(-c2cnc3cc(Br)ccc3n2)cc1	8.59
CNc1ccc(-c2cnc3cc(I)ccc3n2)cc1	8.11
CN(C)c1ccc(-c2cnc3cc(I)ccc3n2)cc1	8.39
CNc1ccc2cc(-c3ccc(OCCOCCOCCF)cc3)ccc2c1	8.80
CNc1ccc(-c2ccc3cc(OCCOCCOCCF)ccc3c2)cc1	8.52

Now take the following compound into account.
Q: Could you tell me which pKi is on file for `Nc1ccc(-c2cnc3cc(I)ccc3n2)cc1` ?
Ans: 7.97

---

assay: Lipophilicity, log D of the compound; type: physicochemical; settings: octanol/water
property_label: logD
Provide a numeric answer; units are not to be included.

Q: Could you tell me which logD is on file for `CN(C)c1ccc(-c2cnc3cc([125I])ccc3n2)cc1` ?
Ans: 4.02
